Numbers sourced from patent US10385022B2.

system.under.test: human GPBAR1 receptor (Homo sapiens (Human))
Sequence (Q8TDU6 whole entry): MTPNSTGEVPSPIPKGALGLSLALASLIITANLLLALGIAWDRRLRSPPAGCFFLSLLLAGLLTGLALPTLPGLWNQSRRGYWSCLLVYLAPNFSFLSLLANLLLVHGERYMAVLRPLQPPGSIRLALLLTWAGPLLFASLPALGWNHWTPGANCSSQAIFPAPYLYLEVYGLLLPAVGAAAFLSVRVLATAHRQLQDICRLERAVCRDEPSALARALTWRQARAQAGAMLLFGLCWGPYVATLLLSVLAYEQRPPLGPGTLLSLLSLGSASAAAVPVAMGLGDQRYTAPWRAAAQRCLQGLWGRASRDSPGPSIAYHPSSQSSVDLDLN
procedure.details: functional cAMP assay in CHO-dhfr(minus) cells expressing human GPBAR1 receptors
condition.info: CHO-dhfr(minus) cells expressing human GPBAR1, 30 min at 30° C.
Description: The final clone was verified by DNA sequence analysis. The plasmid was transfected into CHO cells deficient in dihydrofolate reductase activity (CHO-dhfr-) using Lipofectamine plus (Invitrogen). Clones were isolated in limited dilution conditions and identified by activities in the cAMP assay using lithocholic acid as agonist. EC50 values were determined using Activity Base analysis (ID Business Solution, Limited). […]
experimental.readout: EC50 (nM)

Guide cases for EC50, answers given:
Cc1ccccc1-c1ccncc1N(C)C(=O)c1ccc(C(F)(F)F)c(F)c1 [Example 94]	2160
Cc1ccccc1-c1ccncc1N(C)C(=O)c1cc(F)cc(F)c1 [Example 9]	1230
COc1ccc(C(=O)N(C)c2cnccc2-c2ccccc2C)cc1C(F)(F)F [Example 92]	236
COC(=O)c1ccc(C)c(-c2ccncc2N(C)C(=O)c2cc(C(F)(F)F)cc(C(F)(F)F)c2)c1 [Example 83]	376
COC(=O)CN(C(=O)c1cc(C(F)(F)F)cc(S(C)(=O)=O)c1)c1cnccc1-c1ccccc1F [Example 213]	253

A. COc1cc(F)ccc1-c1ccncc1N(C)C(=O)c1cc(C(F)(F)F)cc(C(F)(F)F)c1 [Example 38]
B. Cc1ccccc1-c1ccncc1N(C)C(=O)c1cc(Cl)nc(Cl)c1 [Example 120]
input: Hey, between A and B which has a smaller measured EC50? Returns: label corresponding to the selected item.
output: A
(A: 11 nM, B: 170 nM)
